All figures here come from the NIST ThermoML archive (doi:10.1016/j.jct.2009.04.005).

# assay_context: 298.15 K; Liquid; Closed cell (Static) method
value_kind: vapor or sublimation pressure (kPa)

1) CCCCCC	20.22
2) CCC(C)O (centres undefined)	2.34
3) CCCCO	0.91
4) CCCCCl	13.52

---

# assay_context: 298.15 K; Liquid; Vibrating tube method
Numbers after ± are expanded uncertainties.
The reader will find reported mass density values listed item by item below.
value_kind: mass density

1) CCCCO	805.802 ± 0.15 kg/m3
2) CCC(C)O (centres undefined)	802.451 ± 0.31 kg/m3
3) CCCCCl	880.805 ± 0.3 kg/m3
4) CCCCCC	654.96 ± 0.33 kg/m3
